assay system: human TAS1R2-R317P/TAS1R3-WT (Homo sapiens, UniProt Q7RTX0+Q8TE23, R317P)
Construct: expressed in transfected cells; host or cells: HEK293T-Gα16gust44
Sequence (Q8TE23 20-839 R317P): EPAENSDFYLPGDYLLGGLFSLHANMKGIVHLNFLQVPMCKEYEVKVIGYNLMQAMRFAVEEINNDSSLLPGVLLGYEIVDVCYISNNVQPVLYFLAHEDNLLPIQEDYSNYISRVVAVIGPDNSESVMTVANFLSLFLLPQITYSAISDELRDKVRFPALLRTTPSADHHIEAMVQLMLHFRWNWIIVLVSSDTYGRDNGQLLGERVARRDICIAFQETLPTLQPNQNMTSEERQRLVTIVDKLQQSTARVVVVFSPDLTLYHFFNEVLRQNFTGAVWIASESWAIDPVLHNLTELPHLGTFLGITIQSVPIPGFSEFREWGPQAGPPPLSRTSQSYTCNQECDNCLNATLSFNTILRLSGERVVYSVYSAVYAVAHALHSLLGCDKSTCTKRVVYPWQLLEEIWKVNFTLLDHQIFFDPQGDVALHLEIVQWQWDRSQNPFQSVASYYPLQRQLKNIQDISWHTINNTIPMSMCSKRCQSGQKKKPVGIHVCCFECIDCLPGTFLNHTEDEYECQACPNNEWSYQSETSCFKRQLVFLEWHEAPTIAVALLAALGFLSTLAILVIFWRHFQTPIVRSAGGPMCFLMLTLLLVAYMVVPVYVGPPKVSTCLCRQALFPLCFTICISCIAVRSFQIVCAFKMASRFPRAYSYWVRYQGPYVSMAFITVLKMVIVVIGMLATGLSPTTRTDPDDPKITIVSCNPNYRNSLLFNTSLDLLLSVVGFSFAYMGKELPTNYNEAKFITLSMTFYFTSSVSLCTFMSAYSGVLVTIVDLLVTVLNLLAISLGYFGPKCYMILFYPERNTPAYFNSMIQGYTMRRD
Sequence (Q7RTX0 21-852): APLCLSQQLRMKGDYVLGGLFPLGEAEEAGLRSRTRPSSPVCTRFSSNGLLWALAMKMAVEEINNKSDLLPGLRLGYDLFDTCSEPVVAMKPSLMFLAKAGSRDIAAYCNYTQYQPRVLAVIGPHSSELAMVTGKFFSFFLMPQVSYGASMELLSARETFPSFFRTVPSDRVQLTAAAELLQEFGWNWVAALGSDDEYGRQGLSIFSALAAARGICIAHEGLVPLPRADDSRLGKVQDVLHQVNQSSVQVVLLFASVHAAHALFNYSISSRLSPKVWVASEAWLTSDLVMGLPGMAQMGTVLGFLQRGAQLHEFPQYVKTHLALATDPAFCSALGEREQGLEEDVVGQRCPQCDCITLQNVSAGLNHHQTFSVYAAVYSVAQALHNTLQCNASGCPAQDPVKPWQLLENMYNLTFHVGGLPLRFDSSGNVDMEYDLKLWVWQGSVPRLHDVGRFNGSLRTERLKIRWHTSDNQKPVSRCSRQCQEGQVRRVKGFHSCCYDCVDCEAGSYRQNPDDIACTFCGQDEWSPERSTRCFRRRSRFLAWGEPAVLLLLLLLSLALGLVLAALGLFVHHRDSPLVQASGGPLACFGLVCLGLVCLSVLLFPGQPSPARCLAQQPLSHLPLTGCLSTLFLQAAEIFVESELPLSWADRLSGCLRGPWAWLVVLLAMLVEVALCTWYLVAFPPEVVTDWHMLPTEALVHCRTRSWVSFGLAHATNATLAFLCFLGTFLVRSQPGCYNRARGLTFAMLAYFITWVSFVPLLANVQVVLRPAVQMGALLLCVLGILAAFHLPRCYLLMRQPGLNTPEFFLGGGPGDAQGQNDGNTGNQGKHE
experiment description: Calcium mobilisation assay, TAS1R2 variant R317P with TAS1R3-WT
Type: cell-based
setup conditions: maximal signal amplitude
From the text: The coding sequences for TAS1R2 and TAS1R3 were commercially synthesised, and the human codon was optimised for expression in human cells. […] The HEK293T cells were kindly provided by Jay P. Slack (Givaudan Flavors Corporation; Cincinnati, OH, USA). […] The Ca^2+ changes were expressed as fractional changes in fluorescent light intensity: ΔF/F = (F − F0)/F0, where F was the fluorescent light intensity at each point, and F0 was the value of emitted fluorescent light prior to stimulus application. […]
Listed next: entries and their corresponding Max ΔF/F0.
API note: the answer field is a bare number with no unit suffix.

molecule	Max ΔF/F0
C[C@H](CC[C@@H](O[C@@H]1O[C@H](CO[C@@H]2O[C@H](CO)[C@@H](O)[C@H](O)[C@H]2O)[C@@H](O)[C@H](O)[C@H]1O[C@@H]1O[C@H](CO)[C@@H](O)[C@H](O)[C@H]1O)C(C)(C)O)[C@H]1CC[C@@]2(C)[C@@H]3CC=C4[C@@H](CC[C@H](O[C@@H]5O[C@H](CO[C@@H]6O[C@H](CO)[C@@H](O)[C@H](O)[C@H]6O)[C@@H](O)[C@H](O)[C@H]5O)C4(C)C)[C@]3(C)[C@H](O)C[C@]12C [Mogroside V, mogroside V]	1.51
OC[C@H]1O[C@H](O[C@]2(CCl)O[C@H](CCl)[C@@H](O)[C@@H]2O)[C@H](O)[C@@H](O)[C@H]1Cl [Sucralose]	0.76

Consider the molecule C=C(C)[C@@H]1CC=C(/C=N/O)CC1 [Perillartine, perillartine] and give its measured Max ΔF/F0.
1.16
